molecular target: 5-HT1 receptor; experiment: Affinity to the 5-HT1 receptor (receptor binding, calf hippocampus membrane preparations, 3H-serotonin); details: calf hippocampus membranes, 3H-serotonin radioligand
Where a name gives a salt, the structure may show the parent alone.
readout: pKi
Bear in mind: pKi is minus log10 of a mol/L concentration; give just that figure.

Query block: Specify pKi for CCCN(CC#N)C1CCc2cccc(OC)c2C1 (centres unmarked) [Example 26, hydrochloride] and stop.
Result block: 8.70

Query block: Specify pKi for CCCN(CCNC(=O)OCC)C1CCc2cccc(OC)c2C1 (centres unmarked) [Example 22, hydrochloride] and stop.
Result block: 8.52

Query block: Specify pKi for CCCN(CCCNC(=O)c1cccnc1)C1CCc2cccc(OC)c2C1 (centres unmarked) [Example 62, dihydrochloride] and stop.
Result block: 8.40

Query block: Specify pKi for CCCN(CCN1CCCCS1(=O)=O)C1CCc2cccc(OC)c2C1 (centres unmarked) [Example 58, hydrochloride] and stop.
Result block: 8.40

Query block: Specify pKi for CCCN(CCCCN1C(=O)c2ccccc2S1(=O)=O)C1CCc2cccc(OC)c2C1.Cl (centres unmarked) [Example 34, hydrochloride] and stop.
Result block: 9.00

Query block: Specify pKi for CCCN(CCNS(=O)(=O)c1ccc(C)cc1)C1CCc2cccc(OC)c2C1 (centres unmarked) [Example 45, hydrochloride] and stop.
Result block: 9.00

Query block: Specify pKi for CCCN(CCO)C1CCc2cccc(OC)c2C1 (centres unmarked) [Example 42] and stop.
Result block: 8.40

Query block: Specify pKi for CCCN(CCN(CC)CC)C1CCc2cccc(OC)c2C1 (centres unmarked) [Example 20, dihydrochloride] and stop.
Result block: 7.96
